EXPERIMENTAL_SYSTEM: full-length beta-catenin (Axin site) (Homo sapiens, UniProt P35222)
Construct: 15 nM full-length beta-catenin, 20 nM FITC labeled peptide in buffer
Sequence (P35222 1-781): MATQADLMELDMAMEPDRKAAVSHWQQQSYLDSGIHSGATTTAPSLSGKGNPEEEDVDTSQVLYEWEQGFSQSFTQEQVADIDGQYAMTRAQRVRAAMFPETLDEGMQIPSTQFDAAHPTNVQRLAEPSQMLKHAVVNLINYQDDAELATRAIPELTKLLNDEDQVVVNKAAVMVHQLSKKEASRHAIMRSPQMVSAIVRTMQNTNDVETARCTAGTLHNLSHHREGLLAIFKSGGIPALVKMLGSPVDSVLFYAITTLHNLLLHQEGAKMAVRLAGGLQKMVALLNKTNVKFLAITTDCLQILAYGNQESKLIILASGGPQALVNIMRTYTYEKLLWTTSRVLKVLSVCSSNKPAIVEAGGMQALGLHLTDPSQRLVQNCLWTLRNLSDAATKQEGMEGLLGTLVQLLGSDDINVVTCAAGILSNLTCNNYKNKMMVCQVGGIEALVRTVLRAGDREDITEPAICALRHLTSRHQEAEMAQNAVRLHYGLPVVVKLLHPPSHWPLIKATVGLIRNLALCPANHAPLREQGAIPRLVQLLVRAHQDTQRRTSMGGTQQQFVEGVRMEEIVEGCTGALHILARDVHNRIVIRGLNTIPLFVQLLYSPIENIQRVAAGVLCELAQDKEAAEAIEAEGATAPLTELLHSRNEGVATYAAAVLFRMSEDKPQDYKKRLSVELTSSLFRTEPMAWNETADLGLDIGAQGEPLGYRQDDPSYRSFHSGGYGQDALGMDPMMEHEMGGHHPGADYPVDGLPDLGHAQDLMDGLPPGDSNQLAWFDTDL
PROTOCOL_DETAILS: Competition fluorescence polarization assay (Axin site probe)
Type: binding
EXPERIMENTAL_SETUP: competition with FITC labeled Axin-site probe, 15 nM full-length beta-catenin; read-out: FP EC50
QUANTITY_NAME: pEC50
pEC50 here: minus log base 10 of the concentration, concentration in moles per litre.

pEC50 for CC[C@H](C)[C@@H]1NC(=O)C2(NC(=O)[C@H](CCC(N)=O)NC(=O)[C@@H]3CCCN3C(C)=O)CN(C2)C(=O)OCC=CCC[C@](C)(C(=O)N[C@@H](Cc2c[nH]cn2)C(=O)N[C@H](C(=O)N[C@@H](CCCNC(=N)N)C(=O)N[C@@H](CCCNC(=N)N)C(=O)N[C@H](C(=O)N[C@@H](Cc2c[nH]c3ccccc23)C(=O)N[C@@H](CCCNC(=N)N)C(N)=O)C(C)C)C(C)C)NC(=O)[C@H](CC(=O)O)NC(=O)[C@H](CC(C)C)NC1=O (single isomer, unassigned) [FP-0721c, Ac-P-Q-Az-I-L-D-R4-H-V-R-R-V-W-R-NH2] ?
5.89

###

EXPERIMENTAL_SYSTEM: full-length beta-catenin (Axin site) (Homo sapiens, UniProt P35222)
Construct: 15 nM full-length beta-catenin, 20 nM FITC labeled peptide in buffer
PROTOCOL_DETAILS: Competition fluorescence polarization assay (Axin site probe)
Format: binding
EXPERIMENTAL_SETUP: competition fluorescence polarization, Table 2; read-out: in vitro FP EC50
pEC50: −log10 of the molar value. Numbered stars: 1 amine (or outer) side, 2 acyl side, 3 side chain; on linkers, the order of the positions; unused ones are H or OH. Bridge positions count the residues as written; N and C are the ends. Square brackets hold non-standard residues; d marks the D form. Peptide text beside a SMILES is read from it. dαMeDab(Me) = CN(CC[C@@](C)(N[*:1])C(=O)[*:2])[*:3]; X1 = O=C([C@]1(N[*:1])CCN([*:3])C1)[*:2]; X2 = O=C(OCC=CCOC(=O)[*:2])[*:1]
QUANTITY_NAME: pEC50

COMPOUND	EXPERIMENTAL_SYSTEM	MEAS_VALUE
CC[C@H](C)[C@@H]1NC(=O)[C@H](Cc2ccccn2)NC(=O)[C@H](C)NC(=O)[C@H](CC(=O)O)NC(=O)[C@H](CC(C)C)NC(=O)[C@H]([C@@H](C)CC)NC(=O)[C@](C)(NC(=O)[C@H](C)NC(C)=O)CCCCCCC=CCOC(=O)N2CC[C@@](C(=O)N[C@@H](CCC(N)=O)C(=O)N[C@H](C(=O)N[C@@H](Cc3c[nH]c4ccccc34)C(N)=O)C(C)C)(C2)NC1=O (single isomer, unassigned) [FP0559c Isomer 2, Ac-A-R8-I-L-D-A-2pyr-I-MB-Q-V-W-NH2]	full-length beta-catenin (Axin site) (Homo sapiens, UniProt P35222)	< 5.30
CC[C@H](C)[C@@H]1NC(=O)[C@H](Cc2ccccn2)NC(=O)[C@H](C)NC(=O)[C@H](CC(=O)O)NC(=O)[C@H](CC(C)C)NC(=O)[C@H]([C@@H](C)CC)NC(=O)[C@](C)(NC(=O)[C@H](C)NC(C)=O)CCCCCCC=CCOC(=O)N2CC[C@@](C(=O)N[C@@H](CC3CCC3)C(=O)N[C@H](C(=O)N[C@@H](Cc3c[nH]c4ccccc34)C(N)=O)C(C)C)(C2)NC1=O (single isomer, unassigned) [FP0565c Isomer 1, Ac-A-R8-I-L-D-A-2pyr-I-MB-Cba-V-W-NH2]	full-length beta-catenin (Axin site) (Homo sapiens, UniProt P35222)	< 5.30
CC[C@H](C)[C@@H]1NC(=O)[C@H](Cc2ccccn2)NC(=O)[C@H](C)NC(=O)[C@H](CC(=O)O)NC(=O)[C@H](CC(C)C)NC(=O)[C@H]([C@@H](C)CC)NC(=O)[C@](C)(NC(=O)[C@H](C)NC(C)=O)CCCCCCC=CCOC(=O)N2CC[C@@](C(=O)N[C@@H](Cc3c[nH]c4ccccc34)C(=O)N[C@H](C(=O)N[C@@H](Cc3c[nH]c4ccccc34)C(N)=O)C(C)C)(C2)NC1=O (single isomer, unassigned) [FP0563c Isomer 1, Ac-A-R8-I-L-D-A-2pyr-I-MB-W-V-W-NH2]	full-length beta-catenin (Axin site) (Homo sapiens, UniProt P35222)	< 5.30

Continue with the compound presented below.
pEC50 for CC[C@H](C)[C@@H]1NC(=O)[C@H](Cc2c[nH]cn2)NC(=O)[C@H](C)NC(=O)[C@H](CC(=O)O)NC(=O)[C@H](CC(C)C)NC(=O)[C@H]([C@@H](C)CC)NC(=O)[C@](C)(NC(=O)[C@H](C)NC(C)=O)CCN(C)C(=O)OCC=CCOC(=O)N2CC[C@@](C(=O)N[C@@H](CCCNC(=N)N)C(=O)N[C@H](C(=O)N[C@@H](Cc3c[nH]c4ccccc34)C(N)=O)C(C)C)(C2)NC1=O [FP0597c, Ac-A-MG-I-L-D-A-H-I-MB-R-V-W-NH2] (Ac-A[dαMeDab(Me)]ILDAHI[X1]RVW-NH2; linker 2-9 via X2) ?
> 7.00

Sourced from patent US11198713B2
